Provenance of the data: the supplement of paper PMC6555819

tested on: RARg homodimer (NR concentration 270 nM); assay: PBM binding z-score (relative to random genomic background probes); higher = stronger binding; sequences stand for … in GC…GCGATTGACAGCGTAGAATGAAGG
Recorded measurements of PBM binding z-score, one per entry
PROPERTY_LABEL: PBM binding z-score

sequence_text=CCTAGTGGGCCATTCAGAGGTCATTGATCATATG property_label="PBM binding z-score" measured_number=3.07
sequence_text=CGTCCAAGGCCAGAGAGGTCAGTGAATGCCGAGT property_label="PBM binding z-score" measured_number=4.27
sequence_text=TCATATAGGTAAAAAGGTGAAAGTCCGTAAGTTA property_label="PBM binding z-score" measured_number=1.06
sequence_text=CGTCCAAGTTCAAGGTCAGTGAAAGAGACTCGAA property_label="PBM binding z-score" measured_number=5.33
sequence_text=CCGAGTAGGTTATAGGGCATTCAGGCAACGGTGA property_label="PBM binding z-score" measured_number=0.848
sequence_text=ATATGTAGGTTATCGGGTCATTCAATTTGCGCAT property_label="PBM binding z-score" measured_number=2.68
sequence_text=TCTTGTAGATTAAGCAGGTTAAGAAAGCCTGAGT property_label="PBM binding z-score" measured_number=-0.457
sequence_text=CCGACTGGGGCATGAGGTTACCATAAGCCAGCCC property_label="PBM binding z-score" measured_number=0.922
sequence_text=TAGCCTAGGTCAGATCGGGCCCGTATACGCTATA property_label="PBM binding z-score" measured_number=3.06
sequence_text=ACAGGCAGGTGATGAAGGTAACTCAGGCTATCAT property_label="PBM binding z-score" measured_number=0.118
sequence_text=GCGATTGGGGCATCAGCAGGTTACCATAACTTAA property_label="PBM binding z-score" measured_number=0.543
sequence_text=GATAAAGGGTCAAGGCCAGAGTACGCGTATTGAT property_label="PBM binding z-score" measured_number=6.91
sequence_text=TCATATAGGTAAAAGATGAAAGTCGGTGTGGTAA property_label="PBM binding z-score" measured_number=0.223
sequence_text=TCGAGCAGGCCAGAGGGTCACTCAAGAGGTACGG property_label="PBM binding z-score" measured_number=2.03
sequence_text=CCTTACGGGTCACTACAGGTTATAGCATCGGAGT property_label="PBM binding z-score" measured_number=4.47
sequence_text=AATACAGGGTCATCGTAGGCCAGAGTCCGCACAG property_label="PBM binding z-score" measured_number=5.28
sequence_text=ATCTCTAGGTGAGACTCAGTTCAGTGAAGAACGC property_label="PBM binding z-score" measured_number=0.376
sequence_text=ACTAGCAGGCCCAGTTTGGGTCACTCAAACAAAG property_label="PBM binding z-score" measured_number=0.28
sequence_text=CCTACTGGTCCAAAGGTCATTGATTCCAATGCTC property_label="PBM binding z-score" measured_number=4.49
sequence_text=TCTTGTAGATCAAAGGCTAAGAAAGCCGAAGCCT property_label="PBM binding z-score" measured_number=-0.29
sequence_text=CAAACTAGGTCACGACAGGTCAAAGTCGAATGAC property_label="PBM binding z-score" measured_number=6.78
sequence_text=TCTTGTAGATCATCAGGAGGTTAAGAAAGATCGA property_label="PBM binding z-score" measured_number=0.389
sequence_text=ATCTCTAGGTAAGTCTCAGTTCAGTGAAGAACGC property_label="PBM binding z-score" measured_number=0.271
sequence_text=ATACCAACGTGATCGTGAGGTCGTTGATACTAAC property_label="PBM binding z-score" measured_number=0.269
sequence_text=GCTAGCTGGCCATTTGGGTCACTCAATGACGGGC property_label="PBM binding z-score" measured_number=0.89
sequence_text=GCTTGTAGATCAAGGTTAAGAGAGACTAAGCTAA property_label="PBM binding z-score" measured_number=0.22
sequence_text=CCTACTAGGCCACGAAAGGTCATTGATTCAGTGA property_label="PBM binding z-score" measured_number=4.91
sequence_text=CAAACTAGGTCCAGGTCAAAGTCGGTTTGTGCCA property_label="PBM binding z-score" measured_number=2.27
sequence_text=CCTACTGGGCCATCAGGTCATAGATATCAACGTT property_label="PBM binding z-score" measured_number=1.95
sequence_text=GCTGCTAGGTCAAGTGATGGTCAGCTAAAGCTCG property_label="PBM binding z-score" measured_number=5.33
sequence_text=GCTGCTAGGTCAACTGATGGTCAGTTAAAGCTCG property_label="PBM binding z-score" measured_number=5.45
sequence_text=TAGCCTAGGTAATTCAGGGGCCAGTATAGAAAGC property_label="PBM binding z-score" measured_number=-0.0521
sequence_text=ATCTCTAGGTAAAGACAGTTCAGTGAATGCAAAT property_label="PBM binding z-score" measured_number=0.798
sequence_text=CGTCCAAGGTCAGGGAGGTCAGTGAATGCCGAGT property_label="PBM binding z-score" measured_number=7.67
sequence_text=CGAACTAGGTCATTGACACGACAGTGAATAGTAA property_label="PBM binding z-score" measured_number=4.22
sequence_text=AGTCAAAGTTCCCTAGGTAACGTAAGATTCAGCT property_label="PBM binding z-score" measured_number=0.31
sequence_text=CCTTACGGGTCACGAGGTTATAGGACGACGAGCG property_label="PBM binding z-score" measured_number=5.52
sequence_text=TCCAGCAGGCCAGAGGGTCACTCAAGAGGTACGG property_label="PBM binding z-score" measured_number=1.71
sequence_text=TCTGGTAGATCAACAGGAGGTTAAGAAAGATCGA property_label="PBM binding z-score" measured_number=0.298
sequence_text=CGTCCAAGGTCAACGGTCAGTGAAGAGATGACGG property_label="PBM binding z-score" measured_number=6.47
sequence_text=GCTTTCGGGTCAAAGGTTATAGCATGAATAGAAT property_label="PBM binding z-score" measured_number=5.04
sequence_text=GCATATTGGTAATACAAGGTGAAAGTCCGATTGT property_label="PBM binding z-score" measured_number=0.327
sequence_text=CGTACGAGGGCATGAGTTGATAGCAAATGCCGAT property_label="PBM binding z-score" measured_number=1.57
sequence_text=ATCTTTAGGTAAAGTTCAGTGAAAGATCGATAGA property_label="PBM binding z-score" measured_number=2.45
sequence_text=CCTTACGGGTCACTGACAGGTTAGAGCATTTGGA property_label="PBM binding z-score" measured_number=4.77
